system-under-test: N-terminally labelled Nluc-Sirt2 fusion protein (Homo sapiens, UniProt Q8IXJ6)
Sequence (Q8IXJ6 50-356): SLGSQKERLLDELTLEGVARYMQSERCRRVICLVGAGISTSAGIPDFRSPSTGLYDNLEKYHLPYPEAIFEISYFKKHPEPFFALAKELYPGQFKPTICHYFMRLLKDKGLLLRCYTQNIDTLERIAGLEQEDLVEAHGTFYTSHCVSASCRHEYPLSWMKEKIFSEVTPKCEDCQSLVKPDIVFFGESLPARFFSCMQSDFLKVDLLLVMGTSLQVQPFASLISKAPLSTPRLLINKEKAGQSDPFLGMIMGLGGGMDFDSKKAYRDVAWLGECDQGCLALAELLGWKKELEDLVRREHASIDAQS
assay-explanation: NanoBRET assay, N-terminal Nluc-Sirt2 fusion in HEK293T cells
measured-endpoint: IC50

Consider the reported IC50 for these compounds:
Cc1cc(C)nc(SCC(=O)Nc2ncc(Cc3cccc(OCc4cn(Cc5ccccc5C)nn4)c3)s2)n1 [Compound 8] = 1000 nM
Cc1ccc(Cn2cc(COc3cccc(Cc4cnc(NC(=O)CSc5nc(C)cc(C)n5)s4)c3)nn2)cc1 [Compound 9] = 400 nM

# input for lookup
Measured IC50, Cc1cc(C)nc(SCC(=O)Nc2ncc(Cc3cccc(OCc4cn(Cc5ccc(OCCN6CCOCC6)cc5)nn4)c3)s2)n1 [Compound 12] : 98 nM

Where do these numbers come from? They come from paper PMC8985159.
